Data provenance: PubChem BioAssay AID1963826

- Test system: 926638-142-R-J1-PDC complex spheroid viability
- run_description: Anticancer human tumor 926638-142-R-J1-PDC patient-derived endometrial carcinoma cell line growth inhibition [POLQ]
- run_parameters: second compound 3.16 µM; first compound 0.01 µM; stronger effect = lower value
assay_readout: viability, T/C (%)
The figure you give is taken to be in %; do not add the unit.

Q: viability, T/C lookup needed for Cn1ncnc1[C@H]1c2n[nH]c(=O)c3cc(F)cc(c23)N[C@@H]1c1ccc(F)cc1 + Nc1ccc(C#CCN(C(=O)Cc2ncc(C(F)(F)F)cc2C(F)(F)F)c2ccc(F)cc2)nn1 , thanks.
Result: 92.4

Q: viability, T/C lookup needed for COc1cccc(OCCCN)c1-c1cc(Nc2cnc(C#N)cn2)n[nH]1 + Nc1ccc(C#CCN(C(=O)Cc2ncc(C(F)(F)F)cc2C(F)(F)F)c2ccc(F)cc2)nn1 , thanks.
Result: 73.4

Q: viability, T/C lookup needed for CC[C@@]1(O)C(=O)OCc2c1cc1n(c2=O)Cc2cc3c(CN(C)C)c(O)ccc3nc2-1 + Nc1ccc(C#CCN(C(=O)Cc2ncc(C(F)(F)F)cc2C(F)(F)F)c2ccc(F)cc2)nn1 , thanks.
Result: 78.6

Q: viability, T/C lookup needed for CCc1c2c(nc3ccc(O)cc13)-c1cc3c(c(=O)n1C2)COC(=O)[C@]3(O)CC + Nc1ccc(C#CCN(C(=O)Cc2ncc(C(F)(F)F)cc2C(F)(F)F)c2ccc(F)cc2)nn1 , thanks.
Result: 46.7

Q: viability, T/C lookup needed for COc1cccc(OCCCN)c1-c1cc(Nc2cnc(C#N)cn2)n[nH]1 + COC1C(OC(N)=O)C(O)C(Oc2ccc3c(O)c(NC(=O)c4ccc(O)c(CC=C(C)C)c4)c(=O)oc3c2C)OC1(C)C , thanks.
Result: 89.3

---

Assign IC50 to each entry below.
- Test system: 926638-142-R-J1-PDC complex spheroid viability
- run_description: Anticancer human tumor 926638-142-R-J1-PDC cell line growth inhibition [POLQ];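 note: spheroids exposed to drugs for one week before readout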
- run_parameters: curve of first compound; second compound 1 µM
- Experimental: Multicellular complex tumor spheroid response to Polymerase (POL) inhibitors (novobiocin, ART-558, RP6685) in combination with a variety of drugs and investigational agents in selected tumor cell lines The POL inhibitors (novobiocin, ART-558, and RP6685) were evaluated both individually and in combination with standard of care and investigational anticancer small molecules within a complex spheroid model of solid tumors. . […]
The figure you give is taken to be in nM; do not add the unit.

Q: IC50 lookup needed for COc1cccc(OCCCN)c1-c1cc(Nc2cnc(C#N)cn2)n[nH]1 + Nc1ccc(C#CCN(C(=O)Cc2ncc(C(F)(F)F)cc2C(F)(F)F)c2ccc(F)cc2)nn1 , thanks.
Result: 77.6

Q: IC50 lookup needed for C=CCn1c(=O)c2cnc(Nc3ccc(N4CCN(C)CC4)cc3)nc2n1-c1cccc(C(C)(C)O)n1 + Cc1cccc(N(C)C(=O)C2C(O)CCN2c2nc(C)cc(C(F)(F)F)c2C#N)c1 , thanks.
Result: 627

Q: IC50 lookup needed for CC1COCCN1c1cc(-c2ccnn2C)c2ccnc(-c3ccn[nH]3)c2n1 (stereo not drawn) + Nc1ccc(C#CCN(C(=O)Cc2ncc(C(F)(F)F)cc2C(F)(F)F)c2ccc(F)cc2)nn1 , thanks.
Result: 285

Q: IC50 lookup needed for CC1COCCN1c1cc(C2(S(C)(=N)=O)CC2)nc(-c2ccnc3[nH]ccc23)n1 (stereo not drawn) + COC1C(OC(N)=O)C(O)C(Oc2ccc3c(O)c(NC(=O)c4ccc(O)c(CC=C(C)C)c4)c(=O)oc3c2C)OC1(C)C , thanks.
Result: 5990

Q: IC50 lookup needed for CC1COCCN1c1cc(C2(O)CC3CCC(C2)O3)c2cnn(-c3ccn[nH]3)c2n1 (stereo not drawn) + Cc1cccc(N(C)C(=O)C2C(O)CCN2c2nc(C)cc(C(F)(F)F)c2C#N)c1 , thanks.
Result: 201

Q: IC50 lookup needed for CC(=O)O[C@H]1C(=O)[C@@]2(C)[C@H]([C@H](OC(=O)c3ccccc3)[C@]3(O)C[C@H](OC(=O)[C@H](O)[C@@H](NC(=O)c4ccccc4)c4ccccc4)C(C)=C1C3(C)C)[C@]1(OC(C)=O)CO[C@@H]1C[C@@H]2O + Cc1cccc(N(C)C(=O)C2C(O)CCN2c2nc(C)cc(C(F)(F)F)c2C#N)c1 , thanks.
Result: 2380

Q: IC50 lookup needed for CC1COCCN1c1cc(C2(O)CC3CCC(C2)O3)c2cnn(-c3ccn[nH]3)c2n1 (stereo not drawn) + Nc1ccc(C#CCN(C(=O)Cc2ncc(C(F)(F)F)cc2C(F)(F)F)c2ccc(F)cc2)nn1 , thanks.
Result: 199

Q: IC50 lookup needed for CCc1c2c(nc3ccc(O)cc13)-c1cc3c(c(=O)n1C2)COC(=O)[C@]3(O)CC + Nc1ccc(C#CCN(C(=O)Cc2ncc(C(F)(F)F)cc2C(F)(F)F)c2ccc(F)cc2)nn1 , thanks.
Result: 11.6

Q: IC50 lookup needed for COc1cccc(OCCCN)c1-c1cc(Nc2cnc(C#N)cn2)n[nH]1 + COC1C(OC(N)=O)C(O)C(Oc2ccc3c(O)c(NC(=O)c4ccc(O)c(CC=C(C)C)c4)c(=O)oc3c2C)OC1(C)C , thanks.
Result: 107
